In this section we review reported IFN-γ levels, BCG / pAg85A animal number 3 values for a set of substances.
Test system: whole blood cells of group 3 pigs vaccinated with BCG-pAg85A
Assay type: cell-based, pigs (Sus scrofa domestica)

Worked set:
{"substance": "171–190: synthetic overlapping peptide of mature Ag85A, aa 171–190 (AGGYKASDMWGPKEDPAWQR; UniProt P9WQP3 214-233, looked up, fragment)", "assayResult": "1,066 pg/mL"}
{"substance": "71–90: synthetic overlapping peptide of mature Ag85A, aa 71–90 (PVGGQSSFYSDWYQPACGKA; UniProt P9WQP3 114-133, looked up, fragment)", "assayResult": "<5 pg/mL"}
{"substance": "1–20: synthetic overlapping peptide of mature Ag85A, aa 1–20 (FSRPGLPVEYLQVPSPSMGR; UniProt P9WQP3 44-63, looked up, fragment)", "assayResult": "<5 pg/mL"}

Alright, here's another substance for you.
Q: # IFN-γ levels, BCG / pAg85A animal number 3 lookup, item 61–80: synthetic overlapping peptide of mature Ag85A, aa 61–80 (YDQSGLSVVMPVGGQSSFYS; UniProt P9WQP3 104-123, looked up, fragment)
Result: 579 pg/mL
